Test system: M14 melanoma
Assay: NCI tumour cell line growth inhibition, 48 h; in the data active = GI50 below about 0.43 µM; inactive = the rest
Outcome codes: true (1) = active, false (0) = inactive

COc1ccccc1/C=C/C(=O)c1c(O)cc2occc2c1OC : false (0)
CCOC(CCCNCCCn1c2c(c3cc(OC)c(OC)cc3c1=O)C(=O)c1cc3c(cc1-2)OCO3)OCC : false (0)
CC(C)CC1C(=O)N2CCC[C@H]2C2(O)O[C@](NC(=O)C3C=C4c5cccc6[nH]c(Br)c(c56)C[C@H]4N(C)C3)(C(C)C)C(=O)N12 (some centres undefined) : false (0)
Nc1ccccc1SC(CC(=O)c1ccccc1)c1ccc([N+](=O)[O-])cc1 (centres undefined) : false (0)
CCN(CC)CC.CCOc1ccc(NC(=O)N=C=[N-])cc1.[CH-]1CCCCC1.[CH-]1CCCCC1.[CH-]1CCCCC1.[Cl-].[Sn+4] : true (1)
N=C(N)/N=C(\N)c1c(-c2cc(O)ccc2O)nc2sccn12 : false (0)
CC(/C=C/C(=O)c1sc(-n2nc(-c3ccccc3)cc2-c2ccccc2)nc1C)=C\c1ccccc1 : false (0)
CCCCCCCCCCCCNC(=O)[C@H]1CSC(c2cc3ccccc3s2)N1 (some centres undefined) : false (0)
COc1ccc(CCN2CCCN3C2=Nc2ccccc2S3(=O)=O)cc1 : true (1)

###

Tested on: UO-31 renal
Test: NCI tumour cell line growth inhibition, 48 h; in the data active = GI50 below about 0.43 µM; inactive = the rest
Outcome codes: True (active), False (inactive)

CNC(=O)c1c(NC(=O)c2ccc(C(F)(F)F)cc2)sc2c1CCC(=O)C2 : True
CN(C)CCCNC(=O)c1ccc2oc3cc4ccccc4c(=O)n3c2c1 : False
C=C(C)[C@@H]1CC[C@]2(C(N)=O)CC[C@]3(C)[C@H](CC[C@@H]4[C@@]5(C)CC[C@H](O)C(C)(C)[C@@H]5CC[C@]43C)[C@@H]12 : False
CCN1C(=O)N(CC)C2C1NN=c1s/c(=C\c3ccccc3F)c(=O)n12 (stereo not given) : True
COc1ccc(CCN2CCCN3C2=Nc2ccccc2S3(=O)=O)cc1 : False

###

Tested on: UO-31 renal
Assay: NCI tumour cell line growth inhibition, 48 h
measured parameter: TGI

Cc1nc2ccccn2c1NC(=O)NNC(=S)Nc1ccc(Br)cc1 : > 100 µM
Cc1cccc(O)c1-c1nnc(CCCCCCCCc2nnc(-c3c(C)cccc3O)n2N)n1N : > 100 µM
O=C(O)C1=C(C(=O)Nc2ccccc2)C2C=CC1C2 (stereo unspecified) : > 100 µM
O=c1[nH]cc(/C=N\Nc2ccccc2)c(=O)[nH]1 : > 100 µM
C=C(C)[C@@H]1CC[C@]2(C(N)=O)CC[C@]3(C)[C@H](CC[C@@H]4[C@@]5(C)CC[C@H](O)C(C)(C)[C@@H]5CC[C@]43C)[C@@H]12 : 3.34 µM
CCC(=O)C1(N2CCOCC2)CCN(CCCC(=O)c2ccc(F)cc2)CC1 : > 100 µM

###

System: LXFL 529 NSCLC
Test: NCI tumour cell line growth inhibition, 48 h
measured parameter: TGI

Nc1nc(Cl)cc(NCCCNc2cc(Cl)nc(N)n2)n1 : > 100 µM
N.N.N.N.O=NN1CCCCCC1(P(=O)([O-])[O-])P(=O)([O-])[O-].[Pt+4].[Pt+4] : > 100 µM
O=c1oc2ccccc2n1P(=O)(n1c(=O)oc2ccccc21)n1c(=O)oc2ccccc21 : > 100 µM
COc1ccc2c(c1O)C(=O)C(CCC(=O)O)CC2 (stereo not drawn) : > 100 µM
C[N+](C)(C)CC(=O)N/N=C(\CCC(=O)NCCc1ccccc1)CC(=O)c1ccccc1 : > 100 µM
COc1c(C)c2c(c3c1c(=O)c1ccccc1n3C)C=CC(C)(C)O2 : 94.4 µM
CC(C)N(C(=O)C1(C)CC1)C(C)C : > 100 µM
O=C1OC2C(O)COC2(O)C1(O)C(C[N+](=O)[O-])c1ccc(Cl)cc1 (stereo not drawn) : 4.07 µM
CC(N)C(=O)OCN1C(=O)C2C3C=CC(C2C1=O)C1C2C(=O)N(COC(=O)C(C)N)C(=O)C2C31 (stereo not drawn) : 60.8 µM
COc1cc(OC)c2ssc3c(OC)cc(OC)c4ssc1c2-c43 : > 100 µM
Cc1c(-c2ccccc2)c(=O)oc2ccc(Cl)cc12 : > 100 µM
CCN(CC)CC.CCOc1ccc(NC(=O)N=C=[N-])cc1.[CH-]1CCCCC1.[CH-]1CCCCC1.[CH-]1CCCCC1.[Cl-].[Sn+4] : 0.0488 µM
CCCCCCCCCCCCCCCCOCC(CN(C)CCN(C)C)OCCCCCCCCCCCCCCCC (stereo not drawn) : > 100 µM
C=CCCOC(=O)CO[N+](=O)[O-] : > 100 µM
CC(C)C1C(=O)NC(CO)Cc2c[nH]c3c(C(c4c[nH]c5ccccc45)C(O)CO)ccc(c23)N1C (stereo not drawn) : > 100 µM
CN(C)c1ncnc2c1Cc1ccccc1C(=O)N2C : > 100 µM
O=C1Nc2cc(Cl)ccc2N=CC1NC(=O)C(c1ccccc1)c1ccccc1Cl (stereo not drawn) : > 100 µM
CC1CN(c2ccc(Cl)cc2)CC(C)(C)OC(=O)O1 (stereo not drawn) : > 100 µM
